- target_entity: acetylcholine receptor
- assay_notes: SPR, AchR immobilised on CM5 chip, peptide 10 uM
property_label: Binding affinity (RU)
Lab note: write values as number then unit, every time.

{"columns": ["binder", "test_result"],
 "data": [
  ["RKPPDR [6mer-1-1005]", "26 RU"]
]}

Prompt: So what's the measured Binding affinity (RU) for this one? RRCEPR [6mer-1-946]
Completion: 31 RU

Prompt: Same lookup for RKMSHR [6mer-1-1000] , please.
Completion: 28 RU

Prompt: Same lookup for KHDMRR [6mer-2-667] , please.
Completion: 25 RU

Data provenance: patent US20250011363A1
